B1: library; a variant is named by its letters at N, in order (parent)
chain: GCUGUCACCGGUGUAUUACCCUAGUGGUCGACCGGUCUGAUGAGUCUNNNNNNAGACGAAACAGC

variants of: B1; assay: normalized RNA/DNA level with ligand (relative to sTRSVctl = 100) (log10 (% of sTRSVctl)); ligand: hypoxanthine (xanthine aptamer); higher = less ribozyme self-cleavage, higher mRNA level; conditions: ligand concentration (+) RNA-Seq: 5 mM, HEK293T, reporter: mCherry (pCS4076), ligand present: yes
VALUE_KIND: normalized RNA/DNA level with ligand (log10)
Quick one: just the number, no unit, thanks!

>  <RESIDUE_CODES>
GCUGUCACCGGUGUAUUACCCUAGUGGUCGACCGGUCUGAUGAGUCUGAUGGCAGACGAAACAGC [GAUGGC]

>  <RECORDED_RESULT>
1.89

$$$$

According to the records, this variant GCUGUCACCGGUGUAUUACCCUAGUGGUCGACCGGUCUGAUGAGUCUCACACUAGACGAAACAGC [CACACU] displays normalized RNA/DNA level with ligand (log10) of 1.95

According to the records, this variant GCUGUCACCGGUGUAUUACCCUAGUGGUCGACCGGUCUGAUGAGUCUGAGCAUAGACGAAACAGC [GAGCAU] displays normalized RNA/DNA level with ligand (log10) of 1.94

According to the records, this variant GCUGUCACCGGUGUAUUACCCUAGUGGUCGACCGGUCUGAUGAGUCUAAGGAUAGACGAAACAGC [AAGGAU] displays normalized RNA/DNA level with ligand (log10) of 1.91

According to the records, this variant GCUGUCACCGGUGUAUUACCCUAGUGGUCGACCGGUCUGAUGAGUCUUAAUAGAGACGAAACAGC [UAAUAG] displays normalized RNA/DNA level with ligand (log10) of 1.87

According to the records, this variant GCUGUCACCGGUGUAUUACCCUAGUGGUCGACCGGUCUGAUGAGUCUGGAAAAAGACGAAACAGC [GGAAAA] displays normalized RNA/DNA level with ligand (log10) of 1.93

According to the records, this variant GCUGUCACCGGUGUAUUACCCUAGUGGUCGACCGGUCUGAUGAGUCUGUACGUAGACGAAACAGC [GUACGU] displays normalized RNA/DNA level with ligand (log10) of 1.89

According to the records, this variant GCUGUCACCGGUGUAUUACCCUAGUGGUCGACCGGUCUGAUGAGUCUGGGGCUAGACGAAACAGC [GGGGCU] displays normalized RNA/DNA level with ligand (log10) of 1.99

According to the records, this variant GCUGUCACCGGUGUAUUACCCUAGUGGUCGACCGGUCUGAUGAGUCUCAGUCCAGACGAAACAGC [CAGUCC] displays normalized RNA/DNA level with ligand (log10) of 1.98

According to the records, this variant GCUGUCACCGGUGUAUUACCCUAGUGGUCGACCGGUCUGAUGAGUCUCCCUCGAGACGAAACAGC [CCCUCG] displays normalized RNA/DNA level with ligand (log10) of 1.93

According to the records, this variant GCUGUCACCGGUGUAUUACCCUAGUGGUCGACCGGUCUGAUGAGUCUUCCACGAGACGAAACAGC [UCCACG] displays normalized RNA/DNA level with ligand (log10) of 1.94

src = the supplement of paper PMC6757056
